- protocol.details: Metabolic stability in human liver microsomes assessed as half life at 100 uM preincubated for 5 mins followed by NADPH addition and measured upto 60 mins by LC-MS/MS analysis
- Format: ADME, Microsome
- measurement.setup: time < 65 min
measure.name: half-life at 100 µM (min)
Only the number, expressed in min, is required.

**Q:** Return reported half-life at 100 µM; argument: CCN(CC)C(=O)C[C@H]1C(=O)Nc2cc(NC(=O)c3cc(OC)c(OC)c(OC)c3Br)c(Oc3cc(C)cc(C)c3)cc2C(=O)N1C
**A:** 11

Origin of values: ChEMBL document CHEMBL5550190
